- assayTarget: Caspase-3 (Homo sapiens, UniProt P42574)
- Sequence (P42574 whole entry): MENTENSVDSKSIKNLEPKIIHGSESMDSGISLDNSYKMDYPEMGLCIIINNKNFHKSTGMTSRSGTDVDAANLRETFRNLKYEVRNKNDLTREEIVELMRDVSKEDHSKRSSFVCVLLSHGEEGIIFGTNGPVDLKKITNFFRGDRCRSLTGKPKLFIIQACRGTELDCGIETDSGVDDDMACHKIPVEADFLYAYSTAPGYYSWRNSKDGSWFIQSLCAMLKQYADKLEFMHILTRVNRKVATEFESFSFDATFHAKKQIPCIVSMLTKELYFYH
- testMethodNotes: SAR Analysis of small molecule inhibitors of Sentrin-specific proteases (SENPs) using a Caspase-3 Selectivity assay. [Related pubchem assays (depositor defined):AID2540, AID2599, AID434973, AID489001]
- Type: functional
Active and inactive are the calls of the source.
Hi there, use one of these labels in your reply, thanks! 1 (yes) for active, 0 (no) for inactive

recordSmiles	assayTarget	group
CCCCNc1cc(NC(C)=O)cc2cc(OC)c(OC)cc12	Caspase-3 (Homo sapiens, UniProt P42574)	0 (no)
O=C(Nc1nc2ccccc2s1)c1ccsc1	Caspase-3 (Homo sapiens, UniProt P42574)	1 (yes)
O=C(Nc1nc2ccc(Cl)cc2s1)c1cccs1	Caspase-3 (Homo sapiens, UniProt P42574)	1 (yes)

Now, please, on to the next compound.
Fill in: this test's call for CC(C)(C)c1ccc2c(c1)C(=O)c1ccccc1C2=O is ___
1 (yes)

* * *

- testMethodNotes: HEp-2 cell cytotoxicity, dose response, cytotoxicity control for RSV inhibitor project, HTS (AID 2410)
- Type: functional
- details: human respiratory syncytial virus
Activity calls are given as the source filed them.
Below: a set of entries, each annotated with reported CC50.

Field: example entries. Status: answers known.
compound	CC50
COc1ccc(C2=NN(C(=O)CSc3cn(C)c4ccccc34)C(c3ccc(OC)cc3)C2)cc1 (centres undefined)	30.2 µM (active)
O=C(Nc1ccc2c(c1)oc1ccccc12)c1cccnc1	46.2 µM (active)
O=C(c1ccc(F)cc1)N1CCN2C(=O)c3ccccc3C12c1ccc(Cl)cc1 (centres undefined)	29 µM (active)

# ---- query compound ----
Briefly, CC50 measured for COc1cc2c(cc1OC)CN(C(=O)c1ccc3[nH]c(C)c(C)c3c1)CC2 : > 50 µM (active)

* * *

Each entry below carries its reported IC50.
- assayTarget: Aminopeptidase N (Plasmodium falciparum FcB1/Columbia, UniProt O96935)
- Sequence (O96935 whole entry): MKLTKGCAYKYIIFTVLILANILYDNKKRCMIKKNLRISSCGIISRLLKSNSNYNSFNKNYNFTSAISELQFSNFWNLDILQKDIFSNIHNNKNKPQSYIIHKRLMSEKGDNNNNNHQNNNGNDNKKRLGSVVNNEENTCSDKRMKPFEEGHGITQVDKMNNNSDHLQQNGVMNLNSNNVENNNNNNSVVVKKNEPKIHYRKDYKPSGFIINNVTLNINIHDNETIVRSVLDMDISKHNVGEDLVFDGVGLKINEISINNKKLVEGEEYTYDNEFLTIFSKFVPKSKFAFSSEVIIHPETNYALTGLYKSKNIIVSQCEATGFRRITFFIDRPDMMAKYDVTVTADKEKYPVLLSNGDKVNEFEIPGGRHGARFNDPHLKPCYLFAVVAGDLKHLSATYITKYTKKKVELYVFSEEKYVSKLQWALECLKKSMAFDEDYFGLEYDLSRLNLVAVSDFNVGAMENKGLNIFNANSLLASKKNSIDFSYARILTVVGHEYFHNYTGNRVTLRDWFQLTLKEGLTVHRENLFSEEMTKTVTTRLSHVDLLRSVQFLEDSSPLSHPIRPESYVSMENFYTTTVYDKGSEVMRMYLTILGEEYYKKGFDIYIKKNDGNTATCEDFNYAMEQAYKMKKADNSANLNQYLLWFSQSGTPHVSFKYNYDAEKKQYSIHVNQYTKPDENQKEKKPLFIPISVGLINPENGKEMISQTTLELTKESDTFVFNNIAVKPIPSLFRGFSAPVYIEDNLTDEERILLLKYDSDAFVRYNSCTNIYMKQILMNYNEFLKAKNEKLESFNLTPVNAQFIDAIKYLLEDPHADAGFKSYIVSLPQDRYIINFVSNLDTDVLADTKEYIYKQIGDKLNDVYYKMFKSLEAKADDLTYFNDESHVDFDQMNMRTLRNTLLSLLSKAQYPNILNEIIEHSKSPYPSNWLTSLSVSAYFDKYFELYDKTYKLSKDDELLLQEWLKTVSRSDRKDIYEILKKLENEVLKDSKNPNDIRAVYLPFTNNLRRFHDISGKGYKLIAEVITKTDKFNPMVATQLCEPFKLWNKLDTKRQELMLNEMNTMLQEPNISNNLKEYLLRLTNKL
- testMethodNotes: P. falciparum M1AAP inhibitors, biochemical, fluorogenic H-Leu-NHMec substrate, 1536-well (AID 1445)
- Design: species or system Plasmodium falciparum 3D7, 3D7
Calls of active or inactive are those of the source.

recordSmiles	endpointResult
O=C(COc1ccccc1/C=C\c1nc(O)nc(O)c1[N+](=O)[O-])Nc1ccccc1	42.9 µM (active)
Cc1ccc(NS(=O)(=O)c2ccc3[nH]c(=O)c(=O)[nH]c3c2)cc1Cl	41.9 µM (active)
O=C(O)c1cc(S(=O)(=O)Nc2ccc3oc(=O)sc3c2)ccc1O	70.9 µM (active)

API: the following record is the query input.
// IC50 value for COc1ccc(-c2nnc(SCC(=O)Nc3cc(S(=O)(=O)N4CCCCC4)ccc3Cl)n2N)cc1 : 39.3 µM (active)

* * *

- assayTarget: DNA (cytosine-5)-methyltransferase 1 (Homo sapiens)
- Sequence (P26358 whole entry): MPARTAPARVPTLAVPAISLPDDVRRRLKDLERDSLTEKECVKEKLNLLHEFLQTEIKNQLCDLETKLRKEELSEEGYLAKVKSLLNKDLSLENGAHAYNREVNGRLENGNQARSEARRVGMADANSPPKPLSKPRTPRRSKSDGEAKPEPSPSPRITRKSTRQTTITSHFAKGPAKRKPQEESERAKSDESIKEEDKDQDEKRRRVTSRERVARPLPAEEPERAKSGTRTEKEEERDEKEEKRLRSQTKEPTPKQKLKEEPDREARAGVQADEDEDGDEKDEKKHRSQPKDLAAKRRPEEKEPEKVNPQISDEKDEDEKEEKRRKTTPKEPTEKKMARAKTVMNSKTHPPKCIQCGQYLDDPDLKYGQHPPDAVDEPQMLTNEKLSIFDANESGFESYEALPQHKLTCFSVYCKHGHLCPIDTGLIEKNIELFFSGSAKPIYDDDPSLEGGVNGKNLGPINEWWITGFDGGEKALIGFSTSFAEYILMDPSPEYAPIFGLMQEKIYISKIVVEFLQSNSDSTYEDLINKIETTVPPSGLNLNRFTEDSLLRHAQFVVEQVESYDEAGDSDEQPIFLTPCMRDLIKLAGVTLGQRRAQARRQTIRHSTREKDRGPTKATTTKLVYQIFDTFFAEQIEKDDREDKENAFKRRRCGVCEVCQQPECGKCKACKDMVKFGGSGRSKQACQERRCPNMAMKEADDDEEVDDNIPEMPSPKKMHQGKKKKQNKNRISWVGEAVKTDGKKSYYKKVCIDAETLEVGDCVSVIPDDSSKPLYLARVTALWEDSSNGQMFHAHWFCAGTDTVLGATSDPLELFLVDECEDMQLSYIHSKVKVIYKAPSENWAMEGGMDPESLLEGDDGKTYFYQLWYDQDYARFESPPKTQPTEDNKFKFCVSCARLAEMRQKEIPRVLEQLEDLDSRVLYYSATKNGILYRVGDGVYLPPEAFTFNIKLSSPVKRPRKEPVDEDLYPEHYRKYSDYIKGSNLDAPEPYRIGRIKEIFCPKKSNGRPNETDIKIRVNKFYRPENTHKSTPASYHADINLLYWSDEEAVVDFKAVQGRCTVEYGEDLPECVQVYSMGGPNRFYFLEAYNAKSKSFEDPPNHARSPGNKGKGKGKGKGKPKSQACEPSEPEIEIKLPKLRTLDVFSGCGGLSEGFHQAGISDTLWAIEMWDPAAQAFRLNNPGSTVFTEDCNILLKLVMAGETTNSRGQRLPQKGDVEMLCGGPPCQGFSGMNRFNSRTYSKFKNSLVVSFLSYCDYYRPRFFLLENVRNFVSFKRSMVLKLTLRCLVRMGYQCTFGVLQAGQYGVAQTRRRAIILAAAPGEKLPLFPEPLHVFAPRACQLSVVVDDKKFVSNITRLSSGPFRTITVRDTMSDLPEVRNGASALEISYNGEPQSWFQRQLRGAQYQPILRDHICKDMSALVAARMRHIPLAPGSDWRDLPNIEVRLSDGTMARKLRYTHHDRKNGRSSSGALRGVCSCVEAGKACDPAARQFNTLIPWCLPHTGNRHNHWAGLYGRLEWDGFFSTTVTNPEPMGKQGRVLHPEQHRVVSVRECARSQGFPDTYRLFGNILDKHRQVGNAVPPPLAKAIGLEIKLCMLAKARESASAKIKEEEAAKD
- testMethodNotes: DNMT1 methyltransferase inhibitors, confirmation, biochemical, fluorescent molecular beacon (AID 602386)
- Type: functional
Calls of active or inactive are those of the source.
experimentalEndpoint: IC50

Some entries whose results are on file:
recordSmiles	endpointResult
COc1ccc(Cc2nnc(NC(=O)Cc3cccs3)s2)cc1	4.47 µM (active)
Cc1ccc(NC(=O)CN2C(=O)S/C(=C/c3ccc(-c4cc(C(=O)O)ccc4C)o3)C2=O)cc1C	11.3 µM (active)
COc1ccc(S(=O)(=O)N2CCN(C(=O)c3cc4c(s3)CCC4)CC2)cc1	11.3 µM (active)

Okay, next one:
Reading of IC50 for NS(=O)(=O)c1ccc(NC(=O)COC(=O)c2ccc([N+](=O)[O-])s2)cc1 with DNA (cytosine-5)-methyltransferase 1 (Homo sapiens): 25.1 µM (active)

* * *

- assayTarget: DNA dC->dU-editing enzyme APOBEC-3A (Homo sapiens, UniProt P31941)
- Sequence (P31941 whole entry): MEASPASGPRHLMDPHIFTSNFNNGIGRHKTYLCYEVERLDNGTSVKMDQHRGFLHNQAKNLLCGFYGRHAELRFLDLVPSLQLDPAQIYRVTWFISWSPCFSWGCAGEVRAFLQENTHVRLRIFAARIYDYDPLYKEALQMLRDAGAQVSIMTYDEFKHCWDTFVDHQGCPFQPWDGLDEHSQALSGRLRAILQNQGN
- testMethodNotes: APOBEC3A DNA deaminase inhibitors, dose response, biochemical (AID 504722)
- Format: functional
Activity calls are given as the source filed them.
Use one of these outcomes when replying: active, inactive

Some solved cases for reference:
molecule	group
C=CCn1c(S)nnc1CSc1ccccc1[N+](=O)[O-]	active
O=[N+]([O-])c1ccc(/C=N/n2c(S)nnc2-c2cccnc2)cc1	inactive
CN1CCN(C(=O)c2sc(=S)n(-c3ccccc3)c2N)CC1	inactive

Then there is this molecule:
# lookup: test call for COc1cc(C2Nn3c(nnc3-c3ccccc3OC)S2)ccc1O (centres undefined)
inactive

* * *

- assayTarget: Protein skinhead-1 (Caenorhabditis elegans)
- Sequence (P34707 whole entry): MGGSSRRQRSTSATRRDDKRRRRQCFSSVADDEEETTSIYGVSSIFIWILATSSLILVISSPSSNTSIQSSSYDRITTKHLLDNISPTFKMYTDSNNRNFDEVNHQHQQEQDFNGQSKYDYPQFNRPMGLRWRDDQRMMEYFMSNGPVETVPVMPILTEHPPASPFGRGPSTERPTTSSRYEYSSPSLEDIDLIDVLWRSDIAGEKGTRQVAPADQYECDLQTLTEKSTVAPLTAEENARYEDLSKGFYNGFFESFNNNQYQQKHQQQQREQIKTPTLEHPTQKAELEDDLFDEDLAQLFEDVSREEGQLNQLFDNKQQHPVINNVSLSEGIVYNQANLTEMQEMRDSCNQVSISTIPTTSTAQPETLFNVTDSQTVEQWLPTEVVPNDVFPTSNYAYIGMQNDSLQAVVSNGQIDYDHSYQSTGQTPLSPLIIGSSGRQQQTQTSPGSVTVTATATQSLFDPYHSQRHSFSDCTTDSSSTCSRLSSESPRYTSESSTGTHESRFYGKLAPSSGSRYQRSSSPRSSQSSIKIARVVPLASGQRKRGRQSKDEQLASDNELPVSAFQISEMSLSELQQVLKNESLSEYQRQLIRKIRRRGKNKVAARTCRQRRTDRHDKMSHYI
- Assay type: functional
Active and inactive are the calls of the source.
// allowed return values: active, inactive

recordSmiles	group
O=c1c(-c2ccc(Br)cc2)coc2c(CN3CCOCC3)c(O)ccc12	inactive
CCN(CC)S(=O)(=O)c1cccc(-c2nnc(SCC(=O)c3cc(C)n(C4CC4)c3C)o2)c1	inactive
Brc1ccc(CSc2nnc(-c3cccnc3)o2)cc1	inactive
CCCc1cc(C(=O)Nc2nccs2)cs1	inactive
CCc1nnc(NC(=O)CSc2nnc(COc3cccc(C)c3)o2)s1	inactive
O=C(NCc1nnc(S)n1-c1ccc(F)cc1)c1ccc(S(=O)(=O)N2CCOCC2)cc1	inactive
c1ccc(CSc2nnc(-c3cccs3)o2)cc1	active
Cc1c(C)n(C)c2ccc(C(=O)NCCN3CCOCC3)cc12	inactive
CCn1c(SCC(=O)Nc2ccc(NC(=O)c3cccs3)cc2)nnc1-c1cccnc1	inactive
O=C(/C=C/Nc1ccc(Br)cc1F)c1ccccc1	inactive

Please share the test call associated with O=C(O)c1cc(-c2cccc3ccccc23)nc2ccccc12 .
inactive

* * *

Overview of recorded IC50 for various molecules
- assayTarget: Rac GTPase-activating protein 1 (Homo sapiens)
- Sequence (Q9H0H5 whole entry): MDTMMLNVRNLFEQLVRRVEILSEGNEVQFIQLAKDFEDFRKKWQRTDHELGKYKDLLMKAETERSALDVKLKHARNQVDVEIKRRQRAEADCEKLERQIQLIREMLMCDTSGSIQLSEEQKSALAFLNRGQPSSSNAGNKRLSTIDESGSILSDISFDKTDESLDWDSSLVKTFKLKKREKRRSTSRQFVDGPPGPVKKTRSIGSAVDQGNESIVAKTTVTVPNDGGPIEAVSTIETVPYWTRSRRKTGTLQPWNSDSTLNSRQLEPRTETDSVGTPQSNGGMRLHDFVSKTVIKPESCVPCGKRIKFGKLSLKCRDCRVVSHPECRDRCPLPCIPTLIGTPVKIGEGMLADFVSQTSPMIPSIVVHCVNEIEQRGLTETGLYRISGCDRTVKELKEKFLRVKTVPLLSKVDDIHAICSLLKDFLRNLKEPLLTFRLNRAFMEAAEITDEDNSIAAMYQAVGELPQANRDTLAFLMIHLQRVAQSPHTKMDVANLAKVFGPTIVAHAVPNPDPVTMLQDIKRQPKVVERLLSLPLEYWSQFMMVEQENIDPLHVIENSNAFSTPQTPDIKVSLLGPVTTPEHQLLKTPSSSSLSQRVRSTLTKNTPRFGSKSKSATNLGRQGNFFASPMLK
- testMethodNotes: MgcRacGAP GTPase-activating activity inhibitors, confirmation, biochemical, ADP Hunter fluorescence, primary and confirmatory (AID 624330)
- Format: functional
Active and inactive are the calls of the source.

These recorded examples may help you get a feel for the data.
molecule	assayTarget	IC50
CCCCNc1cc(NC(C)=O)cc2cc(OC)c(OC)cc12	Rac GTPase-activating protein 1 (Homo sapiens)	39.5 µM (active)
COc1ccc(Oc2c[nH]nc2-c2ccc(O)cc2O)cc1	Rac GTPase-activating protein 1 (Homo sapiens)	28.3 µM (active)
CN(C)c1ccc(NC(=O)CCN2C(=O)c3cccc([N+](=O)[O-])c3C2=O)cc1	Rac GTPase-activating protein 1 (Homo sapiens)	86.5 µM (active)
Cn1c(N2CCOCC2)c(/C=N/O)c2ccccc21	Rac GTPase-activating protein 1 (Homo sapiens)	74.5 µM (active)
C=CCn1c(SCC(=O)c2ccc(O)c(O)c2)nnc1-c1cccc(Cl)c1	Rac GTPase-activating protein 1 (Homo sapiens)	79.5 µM (active)

molecule CN1CCN(C(=O)c2sc(=S)n(-c3ccccc3)c2N)CC1 , IC50 observed: 191 µM (active)

* * *

- assayTarget: Histone-lysine N-methyltransferase NSD2 (Homo sapiens, UniProt O96028)
- Sequence (O96028 whole entry): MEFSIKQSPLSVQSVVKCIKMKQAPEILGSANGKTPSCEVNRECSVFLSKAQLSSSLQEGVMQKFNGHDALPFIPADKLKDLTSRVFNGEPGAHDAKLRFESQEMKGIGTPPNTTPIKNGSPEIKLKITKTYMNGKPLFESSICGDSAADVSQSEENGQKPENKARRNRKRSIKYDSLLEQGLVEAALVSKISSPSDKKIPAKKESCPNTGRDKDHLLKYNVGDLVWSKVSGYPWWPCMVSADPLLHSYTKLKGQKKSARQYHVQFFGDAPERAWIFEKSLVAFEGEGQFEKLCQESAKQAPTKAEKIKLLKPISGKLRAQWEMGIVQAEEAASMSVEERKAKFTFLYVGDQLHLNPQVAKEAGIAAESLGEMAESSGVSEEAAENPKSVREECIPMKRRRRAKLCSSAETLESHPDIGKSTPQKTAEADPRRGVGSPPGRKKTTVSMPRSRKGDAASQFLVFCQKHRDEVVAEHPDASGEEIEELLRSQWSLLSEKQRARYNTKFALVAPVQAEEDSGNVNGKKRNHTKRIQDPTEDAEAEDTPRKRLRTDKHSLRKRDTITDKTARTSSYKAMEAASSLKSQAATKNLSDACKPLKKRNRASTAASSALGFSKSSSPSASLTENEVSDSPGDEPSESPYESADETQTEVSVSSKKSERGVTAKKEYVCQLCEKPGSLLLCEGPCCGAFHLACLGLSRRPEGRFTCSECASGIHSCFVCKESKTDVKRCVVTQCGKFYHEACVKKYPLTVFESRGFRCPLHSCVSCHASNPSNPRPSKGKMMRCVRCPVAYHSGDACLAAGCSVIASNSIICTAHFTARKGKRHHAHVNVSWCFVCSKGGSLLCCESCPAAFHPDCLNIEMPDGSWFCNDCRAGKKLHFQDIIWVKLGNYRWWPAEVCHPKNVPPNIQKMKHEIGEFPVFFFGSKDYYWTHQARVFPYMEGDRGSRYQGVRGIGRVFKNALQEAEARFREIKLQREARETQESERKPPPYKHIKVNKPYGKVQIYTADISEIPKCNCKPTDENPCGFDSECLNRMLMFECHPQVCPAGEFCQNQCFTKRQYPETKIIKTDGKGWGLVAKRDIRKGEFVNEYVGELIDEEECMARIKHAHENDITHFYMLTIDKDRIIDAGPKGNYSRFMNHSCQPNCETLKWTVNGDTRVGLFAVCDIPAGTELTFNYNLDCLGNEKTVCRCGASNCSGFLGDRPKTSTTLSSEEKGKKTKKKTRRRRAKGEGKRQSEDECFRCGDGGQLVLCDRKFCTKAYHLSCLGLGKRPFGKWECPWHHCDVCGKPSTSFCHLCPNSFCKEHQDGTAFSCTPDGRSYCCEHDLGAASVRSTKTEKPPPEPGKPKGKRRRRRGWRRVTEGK
- Assay type: biochemical
Calls of active or inactive are those of the source.
AC50: recorded values

Example cases with answers are listed next.
compound	AC50
O=C1C(Br)=C(N2CCN(CCOCCO)CC2)C(=O)c2c(O)ccc(O)c21	7.21 µM (active)
CCCCCCCSc1cc(OC)c(CCNC)cc1OC	17.5 µM (active)
Oc1cc(OCc2ccccc2)ccn1	11.5 µM (active)

Shifting focus to the compound that follows.
Kindly note the recorded AC50 for CC1NC(=O)NC1CCCCCC(=O)Nc1ccc(F)c(Cl)c1 (centres undefined) , which is 0.343 µM (active)
